tested on: TO-3-N3 (biotin conjugate); assay: pull-down binding Z-score (relative to library population); higher = stronger binding; conditions: RNA library: Library-2
observationType: pull-down binding Z-score
Please give the numeric answer without any surrounding text.

GUCCUGCCCUCACUGGGAACCCCCUUCCCUCUGGGUACCAG [hsa-mir-1324]; 1.48

Entry UAGGUGUUUUAAUGUCUAAUUUAGGCAUGCCUUCUUACUGUACUGGUUACAGAGAAGGCUAUUUGAACUCUACUAAUGUCACUAUUGCAACCUA , pull-down binding Z-score reported as -0.221

Entry GAGACAUUUAAACUGUCUU , pull-down binding Z-score reported as -0.469

Entry CAUUCUUUGCUA [hsa-mir-567] , pull-down binding Z-score reported as 0.85

Entry GCCUGCGGGCAGGAAGCGGA [hsa-mir-3928] , pull-down binding Z-score reported as 1.57

Entry UUUUGCUUGUGUCUCUCCGCUCUGAGCAAUC [hsa-mir-96] , pull-down binding Z-score reported as 0.441

###

In this section we review reported pull-down binding Z-score values for a set of sequences.
tested on: G-clamp-N3 (biotin conjugate); experiment: pull-down binding Z-score (relative to library population); higher = stronger binding; conditions: RNA library: Library-1 (pre-miRNA loops + repeats)
Please give the numeric answer without any surrounding text.

CGGGCUGAUUGCGCUAACAGUGGCCCC [hsa-mir-4783]; -0.491
UGGUCAGAUAUCCCAU [hsa-mir-8060]; -1.4
CUUUCUGUUGUCUAAAAGAAAAGAACG [hsa-mir-521-1]; 0.795
CCCAUAUGGAUUACUUUGCUAUGGA [hsa-mir-206]; -0.287
GAGACUUAGAAAUCCCUAAGUCUC [hsa-mir-3921]; 0.443

Entry CGGAAUUCUCCAGAGCCUCUG [hsa-mir-6889] , pull-down binding Z-score reported as -0.773

Entry UUAUGUUUCUGAUCCGAAUAUAA [hsa-mir-208b] , pull-down binding Z-score reported as 0.538

Entry CUUUUAUGUGCCUUGAUAUAAAAG [hsa-mir-3910-2] , pull-down binding Z-score reported as -0.124

Entry CUUAGAUUUUUCCAUCUUUGUAUCUAG [hsa-mir-29b-2] , pull-down binding Z-score reported as 0.453

Entry UGGGUAGAAAGUAUUAUUCUAUUCA [hsa-mir-664b] , pull-down binding Z-score reported as -0.0123

Entry GGAGGCACUGCCAGGGCUGCCCAC [hsa-mir-1202] , pull-down binding Z-score reported as -0.43

Entry CUGAGUAACUUGUGCUUAUAACUCAG [hsa-mir-5000] , pull-down binding Z-score reported as 0.251

Entry AGCGCGAAAGU [hsa-mir-1539] , pull-down binding Z-score reported as 0.0302

Entry GUGGCUUCAACCAAGUUCAAAGUCAC [hsa-mir-3186] , pull-down binding Z-score reported as -1.08

Entry UUGAGAAGUAAUUGA [hsa-mir-548ak] , pull-down binding Z-score reported as 0.0758

Entry CUCAGCAUGUUGAGCCCUGUCUCUGGGGAGCUGAC [hsa-mir-6505] , pull-down binding Z-score reported as 1.48

Entry CCUUCUGUAUACAUGUAUACAGGAGGAAGG [hsa-mir-4716] , pull-down binding Z-score reported as 0.64

Entry GCCUUGUUGCAUAUGGAUCAAGC [hsa-mir-103a-1] , pull-down binding Z-score reported as 0.266

Entry AUAGUUUUAGGGUCACACCCACCACUGGGAGAUAACUAU [hsa-let-7a-1] , pull-down binding Z-score reported as 0.294

Entry AUCAGUUCUCAUUUUACACACUGGC [hsa-mir-24-1] , pull-down binding Z-score reported as 0.0425

Entry UAGUACAGGUGAGAUUGUACUG [hsa-mir-3920] , pull-down binding Z-score reported as 0.5

Entry CUGAGGAAUUUGCUGGGAUAUGUCAG [hsa-mir-584] , pull-down binding Z-score reported as 0.609

Entry UUGGGAUCCACCUUUCUCUCGA [hsa-mir-196b] , pull-down binding Z-score reported as -0.507

Entry GGGGGCAGGCAGGGGAUUGGCUAAGAACCUGACUCUUGC [hsa-mir-7703] , pull-down binding Z-score reported as -0.0197

Entry AUUGAGAGUUCCUUCUCCUGCUCCUGAU [hsa-mir-6766] , pull-down binding Z-score reported as -0.32

###

tested on: TO-N3 (biotin conjugate); assay: pull-down binding Z-score (relative to library population); higher = stronger binding; settings: RNA library: Library-2
observationType: pull-down binding Z-score
Please give the numeric answer without any surrounding text.

UGUUCGCUUUAUUUAUGAUGAAUCA [hsa-mir-539]; -0.916

Entry ACAAUUAUGAAAGAAAAGAAAUUGU [hsa-mir-3611] , pull-down binding Z-score reported as -0.636

Entry UGAGUGUGACAUACCCAUUGGUGCAGGUAUAUGCGCUAGUUAUCAGACUCA , pull-down binding Z-score reported as 0.865

Entry ACCUUGAAGGAAAACAGGGU , pull-down binding Z-score reported as 0.58

Entry AGCCCUGUUGUUGUAAGAUAGUGU [hsa-mir-550a-1] , pull-down binding Z-score reported as -0.00359

Entry UCUGUUGCUUGAAAGAAGAGA [hsa-mir-526a-1] , pull-down binding Z-score reported as 0.922

Entry AACUGAAAGUAAACCUUCAGUU , pull-down binding Z-score reported as -0.401

Entry GAGGCACUUAAAAUGACCAUGGCCUC [IAV_invivo_NS1_NEP_8_Motif_6+IAV_invivo_NS1_NEP_8_Motif_6] , pull-down binding Z-score reported as 0.233

Entry CUGGGAGGUGUGAUCCCGUGCUUCCUGG [hsa-mir-3689b] , pull-down binding Z-score reported as -0.713

###

tested on: TO-3-N3-2 (biotin conjugate); test: pull-down binding Z-score (relative to library population); higher = stronger binding; conditions: RNA library: Library-2
In this section we review reported pull-down binding Z-score values for a set of sequences.

Record GCUGGGCUGAGCUAACCAGGGCUGGGCUGAGC [hsa-mir-4537] ; system TO-3-N3-2 (biotin conjugate); pull-down binding Z-score = -0.0332

Record GAGACACUC [hsa-mir-6126] ; system TO-3-N3-2 (biotin conjugate); pull-down binding Z-score = -0.578

Record AAUAUUGCUUUGCUUGUACAGUAAGUGACAACAGAUGUUUCAUCUCGUUGACUUUCAGGUUACUAUAGCAGAGAUAUU [DMSMaPseq_invitro_SARS-CoV-2_Motif_488] ; system TO-3-N3-2 (biotin conjugate); pull-down binding Z-score = 0.152

Record UGGCGACACUCGCGCCAGCUCCCGGGACGGCUGGGCUCGGGCUGGUCGCCGA [hsa-mir-7845] ; system TO-3-N3-2 (biotin conjugate); pull-down binding Z-score = -0.167

###

system: TO-N3-2 (biotin conjugate); assay: pull-down binding Z-score (relative to library population); higher = stronger binding; conditions: RNA library: Library-2
Assign Fulfilled to entries whose pull-down binding Z-score meets or exceeds -0.3; assign Not fulfilled to the rest.

Past entries and their recorded results:
CCAGUACCAGAGGUGAAAAUACUCAAUAAUUUGGGUGUGGACAUUGCUGCUAAUACUGUG; Fulfilled
UGGUUACGUGUUUGAUGGUUAAUCA [hsa-mir-376a-2]; Fulfilled
AUUUAUGUGAACUAAAAUAUAAAU [hsa-mir-513b]; Not fulfilled
GAUUUUUUAGAUUCUAAAGAAAC [hsa-mir-1255a]; Not fulfilled
CAGCCCCGUGUGUUGAGGAAGGAAGG [hsa-mir-940]; Fulfilled

// query Hello, I need to know if CACUGAUUCAGUAAAAUACUCAGUG [hsa-mir-891a] has measured pull-down binding Z-score not below -0.3. Thanks!
// result Not fulfilled

// query Hello, I need to know if AAUAGAAGAAUUAUUCUAUU [SHAPE_invitro_SARS-CoV-2_Motif_349] has measured pull-down binding Z-score not below -0.3. Thanks!
// result Not fulfilled

// query Hello, I need to know if UGUUUCUUUAAUGAGGACGAAACA [hsa-mir-329-1] has measured pull-down binding Z-score not below -0.3. Thanks!
// result Not fulfilled

// query Hello, I need to know if AUCCGAUUUACAGGAU has measured pull-down binding Z-score not below -0.3. Thanks!
// result Not fulfilled

// query Hello, I need to know if CUGCAGAUGCAG [IAV_invivo_HA_4_Motif_2+IAV_invivo_HA_4_Motif_2] has measured pull-down binding Z-score not below -0.3. Thanks!
// result Not fulfilled

// query Hello, I need to know if AAUUUUGAUGAGUAUCAUAGGAGAAAAAUU [hsa-mir-363] has measured pull-down binding Z-score not below -0.3. Thanks!
// result Fulfilled

###

test system: TO-3-N3-2 (biotin conjugate); assay: pull-down binding Z-score (relative to library population); higher = stronger binding; settings: RNA library: Library-2
observationType: pull-down binding Z-score
Please give the numeric answer without any surrounding text.

CCCUGCACUCAGUUUGCACAGGG [hsa-mir-4511]; -0.184
AAUUUUGAUGAGUAUCAUAGGAGAAAAAUU [hsa-mir-363]; 0.27
AUGUCCCUUUAGUUCAAAGU [hsa-mir-2052]; -0.0713
AGAAGACCU [hsa-mir-378g]; 0.241
CCAAAUCAGAAAAGGAUUUGG [hsa-mir-4520-1]; -0.242
UAUGAAGGUAAGCAUUUUUGUA [hsa-mir-3935]; -0.263
CCAUGUGGUUGCGAGGUAUGAGUAAAACAUGG [hsa-mir-218-1]; -0.174
UAGAGUAGGAGAGCCCACUGA [hsa-mir-6846]; 0.147
AGUCUGUCUCAUACCCAACCAGAUU [hsa-mir-205]; 0.167
GGUUCACUAUAUGUUAAACCAGGUGGAACC; 0.221

Entry CCCGGAUACCUCAGAAAUUCGG [hsa-mir-760] , pull-down binding Z-score reported as -0.461

Entry CCAGGCCCCACGGAGAACCAGGGCACCUGG [hsa-mir-8058] , pull-down binding Z-score reported as -0.353
